target: dimeric mouse TIGIT-Fc (R&D Systems, 7267-TG) (mouse) (UniProt P86176); experiment: BLI (ForteBio), IgG on sensor, avid
Sequence (P86176 other isoform, or with tags, fused parts or gaps limits assumed, form in doubt): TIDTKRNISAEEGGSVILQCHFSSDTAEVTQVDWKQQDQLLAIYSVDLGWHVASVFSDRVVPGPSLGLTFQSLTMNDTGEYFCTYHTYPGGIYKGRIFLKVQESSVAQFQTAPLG
Here the recorded Kd is given for each entry.

binder: Clone 25E (antibody, V domains shown) VH: QVQLVQSGAEVKKPGASVKVSCKASGYTFTSYAIAWVRQAPGQGLEWMGWISAYNGNTNYAQKLQGRVTMTTDTSTSTAYMELRSLRSDDTAVYYCARSGSSFWSGDVLGAFDIWGQGTMVTVSS VL: DIQMTQSPSSLSASVGDRVTITCRASQSISSYLNWYQQKPGKAPKLLIYAASSLQSGVPSRFSGSGSGTDFTLTISSLQPEDFATYYCQQSVPPRTFGGGTKVEIK
Kd [pM]: 566

binder: Clone 25 (antibody, V domains shown) VH: QVQLVQSGAEVKKPGASVKVSCKASGYTFTSYAISWVRQAPGQGLEWMGWISAYNGNTNYAQKLQGRVTMTTDTSTSTAYMELRSLRSDDTAVYYCARDLSSFWSGDVLGAFDIWGQGTMVTVSS VL: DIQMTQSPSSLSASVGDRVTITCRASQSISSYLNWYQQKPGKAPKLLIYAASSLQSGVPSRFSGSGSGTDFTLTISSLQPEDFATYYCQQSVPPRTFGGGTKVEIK
Kd [pM]: 967
